# TARGET_ENTITY: BRAFV600E full-length (amino acids 2-766) (Homo sapiens, UniProt P15056, V600E)
# Construct: His6-tagged BRAFV600E full-length (amino acids 2-766); His6; made in house; host or cells: baculovirus expression system (insect cells)
# Sequence (P15056 2-766 V600E): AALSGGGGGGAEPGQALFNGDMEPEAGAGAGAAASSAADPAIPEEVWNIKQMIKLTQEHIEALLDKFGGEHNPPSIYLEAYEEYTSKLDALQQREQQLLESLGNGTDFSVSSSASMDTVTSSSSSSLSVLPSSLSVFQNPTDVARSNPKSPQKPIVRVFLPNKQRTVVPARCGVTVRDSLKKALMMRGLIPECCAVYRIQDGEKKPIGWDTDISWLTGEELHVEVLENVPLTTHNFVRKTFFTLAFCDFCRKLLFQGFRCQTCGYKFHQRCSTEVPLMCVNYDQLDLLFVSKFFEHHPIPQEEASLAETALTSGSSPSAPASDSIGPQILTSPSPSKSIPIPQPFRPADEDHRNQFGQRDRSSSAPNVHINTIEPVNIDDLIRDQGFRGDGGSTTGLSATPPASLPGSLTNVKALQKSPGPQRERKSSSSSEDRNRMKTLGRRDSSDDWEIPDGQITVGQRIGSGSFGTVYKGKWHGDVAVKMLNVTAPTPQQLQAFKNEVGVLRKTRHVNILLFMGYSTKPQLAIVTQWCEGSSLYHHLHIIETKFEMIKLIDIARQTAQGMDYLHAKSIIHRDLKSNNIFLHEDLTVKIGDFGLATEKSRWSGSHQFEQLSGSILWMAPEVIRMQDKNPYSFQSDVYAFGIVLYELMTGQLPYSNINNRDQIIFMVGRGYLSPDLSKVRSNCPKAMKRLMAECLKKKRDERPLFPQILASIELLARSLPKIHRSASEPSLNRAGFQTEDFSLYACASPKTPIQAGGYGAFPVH
# ASSAY_OVERVIEW: B-Raf Accelerated MEK ATPase assay (BRAMA)
# Assay type: biochemical
# CONDITION_DETAILS: B-Raf pIC50, Table 1b; later runs, average pIC50 for the one or more runs, categorized
pIC50: −log10 of the molar value.
Catalogue of pIC50 values

Please review the entries below; each comes with its answer.
COCCCNc1nccc(-c2sc(C(C)C)nc2-c2ccc(F)c(NS(=O)(=O)c3c(F)cccc3F)c2)n1 ... 6.00 to 7.50
CC(C)(C)c1nc(-c2cccc(NS(=O)(=O)c3cccc(F)c3)c2F)c(-c2ccnc(N)n2)s1 ... ≥ 8.50
CC(C)c1nc(-c2ccc(F)c(NS(=O)(=O)c3c(F)cccc3F)c2)c(-c2ccnc(NCCN3CCOCC3)n2)s1 ... 6.00 to 7.50

Could you tell me which pIC50 is on file for `CC(C)(C)c1nc(-c2cccc(NS(=O)(=O)c3ccccc3F)c2F)c(-c2ccncn2)s1` ?
≥ 8.50

Could you tell me which pIC50 is on file for `CC(C)c1nc(-c2ccc(F)c(NS(=O)(=O)c3cc(F)ccc3F)c2)c(-c2ccnc(NCCS(C)(=O)=O)n2)s1` ?
≥ 8.50

Could you tell me which pIC50 is on file for `Nc1nccc(-c2sc(N3CCOCC3)nc2-c2cccc(NS(=O)(=O)N3CCOCC3)c2F)n1` ?
6.00 to 7.50

Could you tell me which pIC50 is on file for `CC(C)CNc1nccc(-c2sc(C(C)C)nc2-c2cccc(NS(=O)(=O)c3c(F)cccc3F)c2F)n1` ?
≥ 8.50
